The origin of these recorded values is patent US20160222014A1.

Below: a set of entries, each annotated with reported IC50.
target: recombinant human FAK1 (Homo sapiens); construct: fused on or other part: N-terminal 6xHis tag; assay: FAK1 HTRF assay

Here are 2 compounds together with their reported answers.
{"columns": ["Smiles string", "Experimental target", "IC50"],
 "data": [
  ["O=c1[nH]c2ccc(Nc3ncc4ccn(S(=O)(=O)c5cccc6cccnc56)c4n3)cc2[nH]1", "recombinant human FAK1 (Homo sapiens)", "< 20 nM"],
  ["CN(c1ncccc1Cn1cc2cnc(Nc3ccc4c(c3)CCC(=O)N4)nc2n1)S(C)(=O)=O", "recombinant human FAK1 (Homo sapiens)", "> 1000 nM"]
]}

stdin: Give recorded IC50. `CNC1CCN(c2ccc(Nc3ncc4ccn(Cc5cc(OC)ccc5N(C)S(C)(=O)=O)c4n3)cc2)CC1`
stdout: < 20 nM

stdin: Quote IC50 reported for `O=S(=O)(c1cccc2cccnc12)n1ccc2cnc(Nc3ccc(N4CCC(CO)CC4)cc3)nc21` please.
stdout: < 20 nM

stdin: Quickly give me recorded IC50 for `C[C@H]1CN(C)CCN1c1ccc(Nc2ncc3ccn(Cc4ccccc4N(C)S(C)(=O)=O)c3n2)cc1`
stdout: < 20 nM

stdin: Provide one value: measured IC50 of `CN1C(=O)CCc2cc(Nc3ncc4ccn(Cc5cccnc5N(C)S(C)(=O)=O)c4n3)ccc21`
stdout: < 20 nM

stdin: Provide measured IC50 value, entry: `CN(c1ncccc1Cn1ccc2cnc(Nc3ccc(S(=O)(=O)C(F)F)cc3)cc21)S(C)(=O)=O`
stdout: > 1000 nM

* * *

Overview of recorded IC50 for various compounds
target: recombinant human FAK1 (Homo sapiens, UniProt Q05397); construct: fused on or other part: N-terminal 6xHis tag; experiment: FAK1 HTRF assay
Sequence (Q05397 422-680 limits assumed): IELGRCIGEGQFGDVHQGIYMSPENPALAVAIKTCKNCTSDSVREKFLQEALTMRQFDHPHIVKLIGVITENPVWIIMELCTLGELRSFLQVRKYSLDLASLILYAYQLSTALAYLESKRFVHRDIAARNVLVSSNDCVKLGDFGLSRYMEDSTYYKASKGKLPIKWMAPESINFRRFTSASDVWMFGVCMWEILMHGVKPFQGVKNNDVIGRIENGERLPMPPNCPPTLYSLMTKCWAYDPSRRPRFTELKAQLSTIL

{"columns": ["Compound", "IC50"],
 "data": [
  ["Cc1ccc(N(C)S(C)(=O)=O)c(Cn2ccc3cnc(Nc4ccc(N5CCC(N(C)C)CC5)c(C)c4)nc32)c1", "< 20 nM"],
  ["CC(=O)Nc1cccc(Nc2cc3c(cn2)c(C)nn3S(=O)(=O)c2ccccc2OC(F)(F)F)c1", "> 1000 nM"],
  ["CN(c1ccccc1Cn1ncc2cnc(Nc3ccc(N4CCNCC4)cc3)cc21)S(C)(=O)=O", "< 20 nM"],
  ["O=c1[nH]c2ccc(Nc3cc4c(ccn4S(=O)(=O)c4ccccc4OC(F)(F)F)cn3)cc2[nH]1", "< 20 nM"]
]}

stdin: Give the measured IC50 for `CN(c1ncccc1Cn1ccc2cnc(Nc3ccc(C#N)nc3)cc21)S(C)(=O)=O`
stdout: > 1000 nM

stdin: Give the reported value of IC50 for this record: `O=S(=O)(c1ccc(Nc2cc3c(ccn3Cc3ccccc3OC(F)F)cn2)cc1)C(F)F`
stdout: > 1000 nM

stdin: Please report IC50 for the following compound: `N#Cc1ccccc1S(=O)(=O)n1ccc2cnc(Nc3ccc4c(c3)CCC(=O)N4)nc21`
stdout: < 20 nM

stdin: Supply measured IC50 of CN(c1ccccc1Cn1ccc2cnc(Nc3ccc4c(c3)CC3CNCCN43)nc21)S(C)(=O)=O (centres unmarked) in your reply.
stdout: < 20 nM

stdin: Give IC50 for `COc1cc(N2CCOCC2)ccc1Nc1cc2c(ccn2S(=O)(=O)c2cccc3cccnc23)cn1`
stdout: < 20 nM

* * *

molecular target: AURKB (Aurora B) enzyme (Homo sapiens)
Sequence (Q96GD4 whole entry): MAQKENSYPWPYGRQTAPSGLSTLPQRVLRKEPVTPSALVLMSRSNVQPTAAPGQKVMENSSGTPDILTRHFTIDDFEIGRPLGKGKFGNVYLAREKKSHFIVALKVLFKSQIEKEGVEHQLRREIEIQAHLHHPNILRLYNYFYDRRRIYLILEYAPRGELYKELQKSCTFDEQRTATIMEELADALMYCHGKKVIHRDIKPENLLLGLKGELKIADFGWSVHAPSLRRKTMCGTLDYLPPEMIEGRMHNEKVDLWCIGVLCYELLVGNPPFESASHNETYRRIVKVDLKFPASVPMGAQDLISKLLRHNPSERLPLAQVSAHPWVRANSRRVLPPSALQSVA
pIC50: −log10 of the molar value.
Measurement kind: pIC50

Previously resolved entries follow.
{"columns": ["Compound", "pIC50"],
 "data": [
  ["CC(=O)Nc1cccc(Nc2cc3c(ccn3S(=O)(=O)c3cccc(OC(F)(F)F)c3)cn2)c1", "< 6.00"],
  ["Cc1cc(Nc2ncc3ccn(Cc4cccnc4N(C)S(C)(=O)=O)c3n2)ccc1N1CCNCC1", "> 7.70"],
  ["CC(=O)Nc1cccc(Nc2cc3c(cn2)cnn3Cc2ccccc2OC(F)F)c1", "< 6.00"],
  ["COc1ccccc1S(=O)(=O)n1ccc2cnc(Nc3ccc4c(c3)CCC(=O)N4)nc21", "> 7.70"],
  ["CC1(C)CN(S(=O)(=O)c2ccccc2C#N)c2cc(Nc3ccc(N4CCNCC4)cc3)ncc21", "< 6.00"]
]}

Continue with the compound presented below.
stdin: For the compound `CN(c1ccccc1Cn1ccc2cnc(Nc3ccc(N4CCN(CCO)CC4)cc3)nc21)S(C)(=O)=O` , give its measured pIC50 value.
stdout: > 7.70

* * *

biological target: AURKB (Aurora B) enzyme (Homo sapiens)
pIC50: −log10 of the molar value.
We begin with a simple list: items and their reported pIC50.

Illustrative cases are given below, each with its answer.
{"columns": ["Compound", "pIC50"],
 "data": [
  ["O=S(=O)(c1cc(Cl)ccc1Cl)N1CC2(CC2)c2cnc(Nc3ccc(N4CCNCC4)cc3)nc21", "< 6.00"],
  ["CN(c1ncccc1Cn1ccc2cnc(Nc3ccc4c(c3)OCC(=O)N4)nc21)S(C)(=O)=O", "> 7.70"],
  ["COc1cc(Nc2cc3c(ccn3S(=O)(=O)c3ccccc3C#N)cn2)ccc1N1CCNCC1", "> 7.70"],
  ["O=S(=O)(c1cccc2cccnc12)n1ncc2cnc(Nc3ccc(N4CC5CC4CN5)cc3)cc21 (stereo not shown)", "> 7.70"],
  ["CC(=O)Nc1cccc(Nc2cc3c(cn2)cnn3S(=O)(=O)c2ccccc2OC(F)(F)F)c1", "< 6.00"],
  ["CN(c1ccccc1Cn1ccc2cnc(Nc3ccc(N4CCC(O)CC4)cc3)nc21)S(C)(=O)=O", "> 7.70"]
]}

stdin: Return reported pIC50. Input compound: `N#Cc1ccccc1S(=O)(=O)n1ccc2cnc(Nc3ccc4c(c3)CCC(=O)N4)nc21`
stdout: > 7.70

stdin: Name the recorded pIC50 of the compound listed here: `CN(c1ccccc1Cn1ccc2cnc(Nc3ccc(N4CCNCC4=O)cc3)nc21)S(C)(=O)=O`
stdout: > 7.70

stdin: Name the recorded pIC50 of the item `O=C(Nc1ccc(Nc2ncc3ccn(S(=O)(=O)c4cccc5cccnc45)c3n2)cc1)C1CC1` in your answer.
stdout: > 7.70

stdin: Could you please provide reported pIC50 for `CC1(C)CN(S(=O)(=O)c2cccc3cccnc23)c2nc(Nc3ccc4c(c3)CCC(=O)N4)ncc21` ? Thanks!
stdout: > 7.70

stdin: Identify measured pIC50 corresponding to `CC1(C)CN(c2ccccn2)c2nc(Nc3ccc4c(c3)CC(=O)N4)ncc21`
stdout: < 6.00

stdin: Hello, please tell me recorded pIC50 for this one: `O=S(=O)(c1cccc2nsnc12)n1ccc2cnc(Nc3ccc(N4CCNCC4)cc3)nc21`
stdout: > 7.70

stdin: Using the record for `O=C1CCc2cc(Nc3ncc4ccn(S(=O)(=O)c5ccccc5Cl)c4n3)ccc2N1` , state its measured pIC50.
stdout: > 7.70

stdin: Quick one: give measured pIC50 for `C[C@@H]1CN(C)CCN1c1ccc(Nc2ncc3ccn(Cc4ccccc4N(C)S(C)(=O)=O)c3n2)cc1`
stdout: > 7.70

stdin: Respond only with pIC50 recorded for `Nc1ccccc1S(=O)(=O)n1ccc2cnc(Nc3ccc4c(c3)CCC(=O)N4)nc21`
stdout: > 7.70

stdin: For the compound `N#Cc1ccccc1S(=O)(=O)n1ncc2cnc(Nc3ccc4c(c3)CCC(=O)N4)nc21` , give its reported pIC50.
stdout: > 7.70

* * *

target: AURKB (Aurora B) enzyme (Homo sapiens)
pIC50: −log10 of the molar value.
pIC50: recorded values

Please review the entries below; each comes with its answer.
{"columns": ["Compound", "pIC50"],
 "data": [
  ["CN(c1ncccc1Cn1ccc2cnc(Nc3ccc(NCCO)cc3)nc21)S(C)(=O)=O", "> 7.70"],
  ["CN(C)S(=O)(=O)c1ccccc1Cn1ccc2cnc(Nc3ccc(N4CCNCC4)cc3)nc21", "> 7.70"],
  ["CN(c1ccccc1Cn1ccc2cnc(Nc3ccc(N4CCNC(C)(C)C4)cc3)nc21)S(C)(=O)=O", "> 7.70"],
  ["C[C@H]1CN(c2ccc(Nc3cc4c(ccn4S(=O)(=O)c4ccccc4C#N)cn3)cc2)CCN1", "> 7.70"],
  ["CN(c1ncccc1Cn1ccc2cnc(Nc3ccc(N4CCN5C(=O)CCC5C4)cc3)nc21)S(C)(=O)=O (stereo not shown)", "> 7.70"],
  ["COc1cc(Nc2ncc3ccn(S(=O)(=O)c4cccc5cccnc45)c3n2)ccc1N1CCN(C)CC1", "> 7.70"],
  ["Cc1cn(S(=O)(=O)c2cccc3cccnc23)c2nc(Nc3ccc(N4CCC(N(C)C)CC4)cc3)ncc12", "> 7.70"],
  ["C[C@@H]1CN(c2ccc(Nc3ncc4ccn(S(=O)(=O)c5cccc6cccnc56)c4n3)cc2)CCN1", "> 7.70"]
]}

stdin: Specify the recorded pIC50 for `COc1ccc(N(C)S(C)(=O)=O)c(Cn2ccc3cnc(Nc4ccc5c(c4)CC(=O)N5)nc32)c1` , system: AURKB (Aurora B) enzyme (Homo sapiens).
stdout: > 7.70

stdin: Enter pIC50 (test system AURKB (Aurora B) enzyme (Homo sapiens)) for `COc1ccccc1S(=O)(=O)n1ncc2cnc(Nc3ccc(N4CCNCC4)cc3)nc21`
stdout: > 7.70

stdin: For AURKB (Aurora B) enzyme (Homo sapiens), give pIC50 of the listed compound: `Cc1ccnc2c(S(=O)(=O)n3ccc4cnc(Nc5ccc(N6CCNCC6)cc5)nc43)cccc12`
stdout: > 7.70

stdin: Fill in pIC50 for `CC(=O)Nc1ccc(Nc2cc3c(cn2)cnn3Cc2ccccc2OC(F)F)nc1` tested with AURKB (Aurora B) enzyme (Homo sapiens).
stdout: < 6.00

stdin: Provide pIC50, tested on AURKB (Aurora B) enzyme (Homo sapiens), for CN1CC2CC1CN2c1ccc(Nc2ncc3ccn(S(=O)(=O)c4cccc5cccnc45)c3n2)cc1 (stereo not shown) .
stdout: > 7.70

stdin: Please indicate recorded pIC50 of `C[C@@H]1CNCCN1c1ccc(Nc2cc3c(ccn3S(=O)(=O)c3cccc4cccnc34)cn2)cc1` measured with AURKB (Aurora B) enzyme (Homo sapiens).
stdout: > 7.70
